Biological target: human Nox4 (Homo sapiens)
Construct: expressed in transfected cells; host or cells: T-REx-293 (hNOX4 T-REx-293), tetracycline-induced; membrane fraction
Sequence (Q9NPH5 1-578): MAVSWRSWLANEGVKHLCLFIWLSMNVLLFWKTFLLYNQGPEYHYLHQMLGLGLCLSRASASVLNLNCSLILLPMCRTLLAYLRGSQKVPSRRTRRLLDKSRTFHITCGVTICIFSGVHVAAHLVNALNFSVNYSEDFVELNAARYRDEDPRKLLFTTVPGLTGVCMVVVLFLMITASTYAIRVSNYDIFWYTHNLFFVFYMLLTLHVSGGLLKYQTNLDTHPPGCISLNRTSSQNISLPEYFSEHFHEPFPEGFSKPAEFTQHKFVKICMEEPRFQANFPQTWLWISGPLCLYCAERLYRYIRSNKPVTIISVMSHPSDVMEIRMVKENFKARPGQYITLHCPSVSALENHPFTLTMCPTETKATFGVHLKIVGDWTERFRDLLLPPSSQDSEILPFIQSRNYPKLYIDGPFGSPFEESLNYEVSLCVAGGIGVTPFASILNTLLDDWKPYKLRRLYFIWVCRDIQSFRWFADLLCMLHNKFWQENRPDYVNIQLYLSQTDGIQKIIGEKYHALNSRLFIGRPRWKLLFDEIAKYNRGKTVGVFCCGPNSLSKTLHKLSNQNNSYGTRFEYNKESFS
Sequence (P13498 2-195 partner limits assumed): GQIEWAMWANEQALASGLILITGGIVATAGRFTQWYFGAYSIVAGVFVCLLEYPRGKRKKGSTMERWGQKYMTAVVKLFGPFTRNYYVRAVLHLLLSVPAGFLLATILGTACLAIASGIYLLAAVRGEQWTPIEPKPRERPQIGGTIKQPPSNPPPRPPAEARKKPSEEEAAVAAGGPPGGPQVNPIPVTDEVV
Experiment: ROS production by membranes expressing human Nox4, cell-free Amplex Red assay
Type: biochemical
Conditions: cell-free membranes, Amplex Red; Cheng-Prusoff; average of at least three experiments in triplicate; read-out: Ki hNox4
pKi: −log10 of the molar value.
valueKind: pKi

O=c1c2c(-c3ccc(Cl)cc3)n(Cc3cnccn3)c(=O)cc2[nH]n1-c1ccccc1Cl | 7.07
O=c1c2c(-c3ccc(Cl)cc3F)n(Cc3cccnc3)c(=O)cc2[nH]n1-c1ccccc1Cl | 7.12
COc1cc(Cn2c(C)c3c(=O)n(-c4ccccc4Cl)[nH]c3cc2=O)ccn1 | 7.16
COc1ccc(-c2c3c(=O)n(-c4ccccc4Cl)[nH]c3cc(=O)n2Cc2cccnc2)c(F)c1 | 7.02
O=c1c2c(-c3cc(Cl)ccc3F)n(Cc3ccncc3)c(=O)cc2[nH]n1-c1ccccc1Cl | 7.10
O=c1c2c(-c3ccccc3F)n(Cc3cccnc3)c(=O)cc2[nH]n1-c1ccccc1Cl | 7.06
COc1ccccc1-n1[nH]c2cc(=O)n(Cc3cccnc3)c(C)c2c1=O | 7.14
Cc1c2c(=O)n(-c3ccccc3Cl)[nH]c2cc(=O)n1Cc1ccn(C)n1 | 6.95
COc1ccc(F)c(-c2c3c(=O)n(-c4ccccc4OC)[nH]c3cc(=O)n2Cc2cnccn2)c1 | 6.83
COc1cc(Cn2c(-c3ccc(Cl)cc3F)c3c(=O)n(-c4ccccc4Cl)[nH]c3cc2=O)ccn1 | 6.98

A. CN(C)c1cccc(-c2c3c(=O)n(-c4ccccc4Cl)[nH]c3cc(=O)n2Cc2ccn(C)n2)c1
B. COc1ccccc1-n1[nH]c2cc(=O)n(Cc3cnccn3)c(-c3ccc(Cl)cc3)c2c1=O
Request: Lowest pKi? choose A or B Please indicate the selected item by its label.
Result: A
(A: 6.90, B: 7.24)
